The measured values listed here are drawn from the supplement of paper PMC10567573.

B1: TMEM106C (parent)
chain: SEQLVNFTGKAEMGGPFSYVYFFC

Variants of: B1
ASSAY_PROTOCOL: protein stability index of a GFP-peptide fusion (GPS, HEK-293T) (PSI 1-6); higher = more stable;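 note: lentivirally expressed fusions sorted by FACS into six bins by GFP to DsRed ratio, PSI derived from sequencing read proportions per bin multiplied by bin number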
SETTINGS: c terminus: a fixed tail appended
Kindly supply the reported protein stability index values for the records listed here.
Answers are plain numbers.

Use these answered entries as a reference point.
E12A    1.37
F7K    2.69

Kindly give each listed record's protein stability index.
1. G14E
2. G14T
3. S1L
4. E12T

Result:
1: 2.86; 2: 3.09; 3: 3.63; 4: 2.51

Report protein stability index for every entry below.
1. V5D
2. K10M
3. N6I

Result:
1. 3.94
2. 2.72
3. 2.71

State recorded protein stability index for all listed variants.
1. L4W
2. L4I
3. N6M
4. F22T
5. S1W
6. S18P
7. F17H

Result:
1: 2.2; 2: 2.74; 3: 3.44; 4: 3.71; 5: 2.49; 6: 2.26; 7: 2.22

Parameters: items (list). Returns: protein stability index for each item.
1. L4A
2. F7Q
3. P16G

Result:
[2.54, 1.74, 2.05]
